Read-out record for Cystic fibrosis transmembrane conductance regulator (Homo sapiens): pIC50
Note on pIC50: it is the negative log10 of concentration, concentration in mol/L.

O=C(CCCCCCC(=O)Nc1ccccc1)NO: 5.81

Now take the following compound into account.
So what does the record say about pIC50 for CN1[C@@H]2CC[C@H]1CC(OC(=O)C(CO)c1ccccc1)C2 (stereo partly drawn) ? 4.67

###

Read-out record for Cystic fibrosis transmembrane conductance regulator (Homo sapiens): IC50
Please state the figure in µM; there is no need to write the unit.

C[n+]1c2cc(N)ccc2cc2ccc(N)cc21: 5.71

So what does the record say about IC50 for `O=C(O)/C=C/c1ccc(Cn2ccnc2)cc1` ? 3.43

###

Read-out record for Cystic fibrosis transmembrane conductance regulator (Homo sapiens, UniProt P13569): EC50

Sample records with EC50:
CN(C/C=C/C#CC(C)(C)C)Cc1cccc2ccccc12: > 50 µM
CCCc1nc(C)c2c(=O)[nH]c(-c3cc(S(=O)(=O)N4CCN(CC)CC4)ccc3OCC)nn12: > 50 µM
CN1[C@@H]2CC[C@H]1CC(OC(=O)C(CO)c1ccccc1)C2 (stereo partly specified): > 50 µM
O=C(O)/C=C/c1ccc(Cn2ccnc2)cc1: > 50 µM
O=C(O)c1ccccc1-c1c2cc(Br)c(=O)cc-2oc2[c]([Hg])c(O)c(Br)cc12: > 50 µM
CC(C)C[C@@H](NC(=O)[C@H](Cc1ccccc1)NC(=O)c1cnccn1)B(O)O: > 50 µM
O=S(=O)(Nc1ccc(-c2cn3cccnc3n2)cc1)c1ccc2c(c1)OCCO2: > 49 µM
CCN(CC)CCOc1ccc2c(c1)C(=O)c1cc(OCCN(CC)CC)ccc1-2: > 50 µM

Give recorded EC50 with Cystic fibrosis transmembrane conductance regulator (Homo sapiens, UniProt P13569) for the following molecule: `CC(C)C[C@H](NC(=O)[C@H](Cc1ccccc1)NC(=O)c1cnccn1)B(O)O` > 50 µM

What about `COc1cc(/C=C(/C#N)c2nc(C)cs2)cc2c1OCO2` ? > 67 µM

What about `C[n+]1c2cc(N)ccc2cc2ccc(N)cc21` ? > 50 µM

###

Biological target: Cystic fibrosis transmembrane conductance regulator (Homo sapiens, UniProt P13569)
Sequence (P13569 whole entry): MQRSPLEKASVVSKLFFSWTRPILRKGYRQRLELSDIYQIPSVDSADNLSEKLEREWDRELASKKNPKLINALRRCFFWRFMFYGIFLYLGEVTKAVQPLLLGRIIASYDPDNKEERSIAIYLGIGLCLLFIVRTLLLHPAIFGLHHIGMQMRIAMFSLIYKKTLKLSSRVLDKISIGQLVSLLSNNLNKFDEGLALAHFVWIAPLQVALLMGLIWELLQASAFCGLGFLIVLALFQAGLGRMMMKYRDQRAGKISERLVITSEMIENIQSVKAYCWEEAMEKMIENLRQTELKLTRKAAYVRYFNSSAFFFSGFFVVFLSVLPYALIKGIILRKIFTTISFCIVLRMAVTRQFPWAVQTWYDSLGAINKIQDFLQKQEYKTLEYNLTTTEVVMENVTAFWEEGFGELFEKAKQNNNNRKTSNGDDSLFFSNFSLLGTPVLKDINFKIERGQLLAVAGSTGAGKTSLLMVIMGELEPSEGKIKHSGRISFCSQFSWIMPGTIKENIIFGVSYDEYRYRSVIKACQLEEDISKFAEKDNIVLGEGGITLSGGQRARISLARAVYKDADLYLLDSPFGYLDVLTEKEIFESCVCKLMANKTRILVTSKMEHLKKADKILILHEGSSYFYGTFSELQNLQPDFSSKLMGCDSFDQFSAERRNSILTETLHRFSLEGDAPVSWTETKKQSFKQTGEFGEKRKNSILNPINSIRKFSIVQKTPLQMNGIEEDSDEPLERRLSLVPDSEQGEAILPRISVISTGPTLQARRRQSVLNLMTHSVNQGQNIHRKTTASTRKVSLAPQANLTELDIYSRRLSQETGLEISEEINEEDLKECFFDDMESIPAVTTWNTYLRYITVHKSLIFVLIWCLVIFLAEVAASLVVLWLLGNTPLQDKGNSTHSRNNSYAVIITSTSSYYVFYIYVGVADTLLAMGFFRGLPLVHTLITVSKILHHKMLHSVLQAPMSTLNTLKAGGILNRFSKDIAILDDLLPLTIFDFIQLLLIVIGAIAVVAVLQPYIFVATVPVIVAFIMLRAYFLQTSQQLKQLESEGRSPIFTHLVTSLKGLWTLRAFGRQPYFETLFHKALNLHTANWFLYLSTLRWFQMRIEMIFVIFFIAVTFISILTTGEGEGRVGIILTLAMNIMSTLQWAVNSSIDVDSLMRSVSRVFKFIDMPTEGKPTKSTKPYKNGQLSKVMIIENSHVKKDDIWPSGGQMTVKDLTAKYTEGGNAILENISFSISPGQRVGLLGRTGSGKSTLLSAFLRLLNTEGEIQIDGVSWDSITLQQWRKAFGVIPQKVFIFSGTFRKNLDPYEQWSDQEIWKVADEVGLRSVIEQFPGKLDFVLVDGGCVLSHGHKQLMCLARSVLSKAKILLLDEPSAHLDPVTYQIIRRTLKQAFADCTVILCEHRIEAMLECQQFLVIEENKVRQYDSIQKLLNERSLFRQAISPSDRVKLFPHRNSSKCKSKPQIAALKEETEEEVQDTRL
RESULT_TYPE: IC50

CN(C/C=C/C#CC(C)(C)C)Cc1cccc2ccccc12: > 25 µM

So what does the record say about IC50 for `N#Cc1ccc(CN2CCc3cc([N+](=O)[O-])ccc32)c(F)c1` ? > 67 µM

What about `O=S(=O)(Nc1ccc(-c2cn3cccnc3n2)cc1)c1ccc2c(c1)OCCO2` ? > 49 µM

###

Read-out record for Cystic fibrosis transmembrane conductance regulator (Homo sapiens): pEC50
pEC50: −log10 of the molar value.

Sample records with pEC50:
Nc1ccc2cc3ccc(N)cc3nc2c1 [acridine-3,6-diamine]: < 4.30
N#Cc1ccc(CN2CCc3cc([N+](=O)[O-])ccc32)c(F)c1 [AB01004372-01]: < 4.17
O=C(CCCCCCC(=O)Nc1ccccc1)NO [Zolinza]: < 4.30

So what does the record say about pEC50 for CO[C@H]1/C=C/O[C@@]2(C)Oc3c(C)c(O)c4c(c3C2=O)C(=O)/C(=C/NN2CCN(C)CC2)C(=C4O)NC(=O)/C(C)=C\C=C\[C@H](C)[C@H](O)[C@@H](C)[C@@H](O)[C@@H](C)[C@H](OC(C)=O)[C@@H]1C [Rifampicin] ? < 4.30

What about CO[C@H]1/C=C/O[C@@]2(C)Oc3c(C)c(O)c4c(c3C2=O)C(=O)/C(=C/NN2CCN(C)CC2)C(=C4O)NC(=O)/C(C)=C\C=C\C(C)[C@H](O)[C@@H](C)[C@@H](O)[C@@H](C)[C@@H](OC(C)=O)[C@@H]1C (stereo not given in full) [AB00052086_02] ? < 4.30
